Recorded measurements of inhibition at 1 µM, one per entry
molecular target: PI3 Kinase alpha (p110 alpha/p85 alpha) (Homo sapiens); construct: purchased Invitrogen; experiment: PI3K TR-FRET assay (Transcreener ADP2); assay type: biochemical; conditions: 1 uM compound; read-out: PI3K % Inhib@1 uM
Sequence (P42336 whole entry): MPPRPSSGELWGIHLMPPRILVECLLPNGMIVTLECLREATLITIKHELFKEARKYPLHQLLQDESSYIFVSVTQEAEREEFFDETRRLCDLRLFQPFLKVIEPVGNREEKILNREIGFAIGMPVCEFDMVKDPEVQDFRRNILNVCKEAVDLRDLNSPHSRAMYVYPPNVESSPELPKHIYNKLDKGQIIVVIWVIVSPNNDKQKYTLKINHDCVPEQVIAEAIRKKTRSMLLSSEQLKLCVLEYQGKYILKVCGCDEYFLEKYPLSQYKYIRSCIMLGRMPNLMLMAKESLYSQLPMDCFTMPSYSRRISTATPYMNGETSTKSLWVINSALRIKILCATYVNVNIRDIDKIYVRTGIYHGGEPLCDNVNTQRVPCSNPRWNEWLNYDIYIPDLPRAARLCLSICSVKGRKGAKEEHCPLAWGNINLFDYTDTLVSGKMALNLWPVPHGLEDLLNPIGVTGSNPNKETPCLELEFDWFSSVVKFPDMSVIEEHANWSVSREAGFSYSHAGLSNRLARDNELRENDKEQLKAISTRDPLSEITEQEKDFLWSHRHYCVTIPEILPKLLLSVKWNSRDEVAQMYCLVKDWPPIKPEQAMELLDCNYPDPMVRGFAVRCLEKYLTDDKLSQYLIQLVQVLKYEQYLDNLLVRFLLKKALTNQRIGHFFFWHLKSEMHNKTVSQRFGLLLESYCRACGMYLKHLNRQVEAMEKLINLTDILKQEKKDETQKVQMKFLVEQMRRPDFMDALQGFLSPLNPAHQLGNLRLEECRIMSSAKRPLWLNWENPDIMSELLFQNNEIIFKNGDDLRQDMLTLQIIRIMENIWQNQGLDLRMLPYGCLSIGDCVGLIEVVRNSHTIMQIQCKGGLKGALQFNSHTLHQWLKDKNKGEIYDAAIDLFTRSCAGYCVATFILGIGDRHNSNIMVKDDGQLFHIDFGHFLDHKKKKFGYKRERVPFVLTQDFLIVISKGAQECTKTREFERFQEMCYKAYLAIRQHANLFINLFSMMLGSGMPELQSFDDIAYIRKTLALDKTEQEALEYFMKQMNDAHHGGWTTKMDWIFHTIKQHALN
Sequence (P27986 whole entry partner): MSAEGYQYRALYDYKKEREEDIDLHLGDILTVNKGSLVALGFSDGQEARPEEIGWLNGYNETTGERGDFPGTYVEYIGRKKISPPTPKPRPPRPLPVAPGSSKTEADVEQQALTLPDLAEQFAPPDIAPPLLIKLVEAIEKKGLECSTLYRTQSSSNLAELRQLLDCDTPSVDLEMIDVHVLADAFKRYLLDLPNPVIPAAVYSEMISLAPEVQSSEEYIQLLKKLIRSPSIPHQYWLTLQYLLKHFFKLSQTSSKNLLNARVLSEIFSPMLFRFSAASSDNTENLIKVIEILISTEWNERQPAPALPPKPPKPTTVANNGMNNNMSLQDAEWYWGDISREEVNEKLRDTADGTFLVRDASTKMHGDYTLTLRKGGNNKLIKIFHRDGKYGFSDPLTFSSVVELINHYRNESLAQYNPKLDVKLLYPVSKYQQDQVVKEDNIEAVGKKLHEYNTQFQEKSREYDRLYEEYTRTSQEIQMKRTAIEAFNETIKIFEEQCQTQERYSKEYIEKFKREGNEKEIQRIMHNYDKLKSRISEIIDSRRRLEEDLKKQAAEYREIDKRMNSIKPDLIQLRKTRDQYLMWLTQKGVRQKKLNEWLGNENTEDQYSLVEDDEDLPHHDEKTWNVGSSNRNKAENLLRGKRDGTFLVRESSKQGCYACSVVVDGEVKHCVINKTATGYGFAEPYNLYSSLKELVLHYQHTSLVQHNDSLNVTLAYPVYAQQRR
measured-attribute: inhibition at 1 µM

[[record]]
compound = "CN(C)C(=O)c1ccc(Oc2nc(-c3cnc(N)s3)nc(N3CCOc4ccccc43)n2)cc1 [Compound 10029]"
endpoint_result = "< 50%"

[[record]]
compound = "C[C@@H]1CN(c2nc(Oc3ccc(C(=O)N(C)C)cc3)nc(-c3cnc(N)s3)n2)[C@@H](C)CO1 [Compound 10076]"
endpoint_result = "< 50%"

[[record]]
compound = "C[C@@H]1CN(c2nc(Oc3ccc(C(=O)N(C)C)cc3F)nc(-c3cnc(N)s3)n2)[C@@H](C)CO1 [Compound 10057]"
endpoint_result = "< 50%"

[[record]]
compound = "C[C@H]1COCCN1c1nc(Oc2ccc(C(=O)N(C)C)cc2)nc(-c2cnc(NC(=O)c3cccnc3)s2)n1 [Compound 10094]"
endpoint_result = "< 50%"

[[record]]
compound = "C[C@H]1COCCN1c1nc(Oc2ccc(C(=O)N(C)C)cc2F)nc(-c2cnc(N)s2)n1 [Compound 10010]"
endpoint_result = "> 50%"

[[record]]
compound = "CC1COCCN1c1nc(Oc2ccc(C(=O)N(C)C)cc2)nc(-c2cnc(N)s2)n1 (stereo not drawn) [Compound 10006]"
endpoint_result = "> 50%"

[[record]]
compound = "C[C@@H]1COCCN1c1nc(Oc2ccc(C(=O)N(C)C)cc2F)nc(-c2ccc(N)nc2)n1 [Compound 10099]"
endpoint_result = "> 50%"

[[record]]
compound = "CN(C)C(=O)c1ccc(Oc2nc(-c3cnc(N)s3)nc(N3CCOCC3(C)C)n2)cc1 [Compound 10128]"
endpoint_result = "> 50%"

[[record]]
compound = "CN(C)C(=O)c1ccc(Oc2nc(-c3cnc(N)s3)nc(N3CCO[C@@H]4CCCC[C@H]43)n2)cc1 [Compound 10131]"
endpoint_result = "< 50%"

[[record]]
compound = "C[C@H]1COCCN1c1nc(Oc2ccc(C(=O)N(C)C)cc2)nc(-c2cnc(NC(=O)NC3CC3)s2)n1 [Compound 10093]"
endpoint_result = "> 50%"

[[record]]
compound = "CN(C)C(=O)c1ccc(Oc2nc(-c3ccc(N)nc3)nc(N3CC4CCC(C3)O4)n2)c(F)c1 [Compound 10095]"
endpoint_result = "< 50%"

[[record]]
compound = "CN(C)C(=O)c1ccc(Oc2nc(-c3cnc(N)s3)nc(N3CC4CCC(C3)O4)n2)c(F)c1 [Compound 10154]"
endpoint_result = "< 50%"

[[record]]
compound = "CN(C)C(=O)c1ccc(Oc2nc(-c3cnc(N)s3)nc(N3CCS(=O)(=O)CC3)n2)cc1 [Compound 10123]"
endpoint_result = "< 50%"

[[record]]
compound = "CN(C)C(=O)c1ccc(Oc2nc(-c3cnc(N)s3)nc(N3CCNC(=O)CC3)n2)cc1 [Compound 10071]"
endpoint_result = "< 50%"

[[record]]
compound = "C[C@@H]1COC[C@H](C)N1c1nc(Oc2ccc(C(=O)N(C)C)cc2)nc(-c2cnc(N)s2)n1 [Compound 10079]"
endpoint_result = "< 50%"

